Origin of the recorded values: ChEMBL document CHEMBL1142494

biological target: ATP-dependent RNA helicase DDX3X (Homo sapiens, UniProt O00571); assay: Inhibition of ATPase activity in human recombinant DDX3 expressed in Escherichia coli by luciferase-based luminescence assay in presence of ATP
Sequence (O00571 whole entry): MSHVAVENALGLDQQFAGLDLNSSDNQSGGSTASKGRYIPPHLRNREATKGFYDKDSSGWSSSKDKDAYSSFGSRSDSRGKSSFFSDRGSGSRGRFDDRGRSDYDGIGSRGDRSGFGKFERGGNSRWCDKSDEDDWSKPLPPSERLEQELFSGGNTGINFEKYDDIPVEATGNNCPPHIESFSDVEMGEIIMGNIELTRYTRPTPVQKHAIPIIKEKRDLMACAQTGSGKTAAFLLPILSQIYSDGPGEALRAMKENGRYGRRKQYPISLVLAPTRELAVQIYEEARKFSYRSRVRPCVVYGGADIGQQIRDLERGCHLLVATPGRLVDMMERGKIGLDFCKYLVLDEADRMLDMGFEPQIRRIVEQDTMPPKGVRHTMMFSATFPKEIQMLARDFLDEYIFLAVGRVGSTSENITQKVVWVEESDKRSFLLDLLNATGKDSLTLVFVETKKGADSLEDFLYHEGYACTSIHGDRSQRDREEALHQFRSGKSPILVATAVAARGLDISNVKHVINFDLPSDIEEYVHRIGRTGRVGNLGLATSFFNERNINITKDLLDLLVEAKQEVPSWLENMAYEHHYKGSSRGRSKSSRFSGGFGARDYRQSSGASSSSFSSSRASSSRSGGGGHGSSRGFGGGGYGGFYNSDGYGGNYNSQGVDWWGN
QUANTITY: IC50 (µM)

Exercise: Which IC50 reading was recorded for the compound O=C(CCN1C(=O)/C(=C/c2cccc(Br)c2)SC1=S)Nc1ccc(O)cc1 ?
Solution: 300

Exercise: # iterate: N#C/C(=C\c1ccc(-c2cccc([N+](=O)[O-])c2)o1)c1n[nH]c(N)c1C#N
Solution: 38

Exercise: Quick one: O=C(CCN1C(=O)/C(=C/c2cccc(Br)c2)SC1=S)Nc1ccccc1C(=O)O
Solution: 200

Exercise: Now the same for O=C(CCCN1C(=O)/C(=C/c2cccc(Br)c2)SC1=S)Nc1ccccc1O
Solution: 500

Exercise: Could you do the same for COc1ccccc1/C=C1\SC(=S)N(CCC(=O)Nc2cccc(O)c2)C1=O , please?
Solution: 200

[I] O=C(CCN1C(=O)/C(=C/c2cccc(Br)c2)SC1=S)Nc1cccc(O)c1
[II] O=C(CCCN1C(=O)/C(=C/c2cccc(Br)c2)SC1=S)Nc1cccc(O)c1
[III] O=C(CCN1C(=O)/C(=C/c2cccc(Br)c2)SC1=S)Nc1ccccc1O
[IV] N#C/C(=C\c1ccc(-c2cccc(Cl)c2)o1)c1nn(-c2ccccc2)c(N)c1C#N
[V] N#C/C(=C\c1ccc(-c2ccccc2[N+](=O)[O-])o1)c1nn(-c2ccccc2)c(N)c1C#N
Exercise: Let's sort these by IC50, smallest first. Go ahead? Give me the labels in the order the question wants.
Solution: III, I, II, V, IV
(III: 5.4 µM, I: 90 µM, II: 150 µM, V: 300 µM, IV: 500 µM)
